System: EKVX NSCLC
Assay: NCI tumour cell line growth inhibition, 48 h
READOUT KIND: TGI

Task: Quick check: TGI of "CN(C)C(=S)/N=c1\sn(C)/c(=N\C(=S)N(C)C)n1C" ?
Result: > 100 µM

Task: Quick check: TGI of "COC1=CC(=O)c2c(c(-c3nc(C)cs3)cn2C)C1=O" ?
Result: 33.6 µM

Task: Quick check: TGI of "COc1cc(N(CCC#N)CCC#N)ccc1/C(N=Nc1ccc(Cl)cc1)=N/NC(=O)c1cc(Br)ccc1O" ?
Result: > 150 µg/mL

Task: Quick check: TGI of "CNCCOC(=O)/C=C1\CC[C@H]2[C@@H]([C@@H](O)C(=O)[C@@H]3[C@]2(C)CC[C@H](O)[C@]3(C)C(=O)OC)[C@H]1C" ?
Result: 0.539 µM

Task: Quick check: TGI of "CC1(C)OC[C@@H](O)[C@H](C#N)CO1" ?
Result: > 100 µM

Task: Quick check: TGI of "O=c1[nH][nH]c(=O)n1CCCCCCn1c(=O)[nH][nH]c1=O" ?
Result: > 100 µM

Task: Quick check: TGI of "Nc1ccc(N=Nc2c(S(=O)(=O)O)cc3ccccc3c2S(=O)(=O)O)cc1" ?
Result: > 100 µM

Task: Quick check: TGI of "O=c1oc2ccc(-c3ccc(F)cc3F)cc2c(=O)n1-c1cccc(C(F)(F)F)c1" ?
Result: > 100 µM

Task: Quick check: TGI of "CC(=O)Nc1ccc(-c2csc(Nc3cccc(-c4csc(C)n4)c3)n2)cc1" ?
Result: 22.2 µM

Task: Quick check: TGI of "Cc1nc(C)c(N2CCN([N+](=O)[O-])CC2)c(=O)[nH]1" ?
Result: > 100 µM

----------
For each of the compounds below, state its TGI.
Tested on: A549 NSCLC
Experiment: NCI tumour cell line growth inhibition, 48 h

Task: Query TGI on A549 NSCLC for CNc1cc2c(c3ccccc13)C(CCl)CN2C(=O)c1cc2cc(OC)c(OC)c(OC)c2[nH]1 (stereo unspecified)
Result: > 100 µM

Task: Query TGI on A549 NSCLC for "N#CNC(=NCc1ccccc1)N(Cc1ccccc1)Cc1ccccc1"
Result: > 31.6 µM

Task: Query TGI on A549 NSCLC for "c1ccc2c(OCCSCCCCCCCCCCSCCOc3cccc4ccccc34)cccc2c1"
Result: > 100 µM

Task: Query TGI on A549 NSCLC for "CSc1nc(SC)c2c(C#N)[nH]nc2n1"
Result: > 100 µM

Task: Query TGI on A549 NSCLC for "CCOC(=O)Nc1cc2c(c(N)n1)N=C(c1ccccc1)CO2"
Result: 13.8 µM

Task: Query TGI on A549 NSCLC for "Cc1ccc(C)c(NC(=O)c2cccc([N+](=O)[O-])c2O)c1"
Result: > 100 µM

----------
Tested on: T-47D breast
Assay: NCI tumour cell line growth inhibition, 48 h; in the data active = GI50 below about 0.43 µM; inactive = the rest
Please state which outcome applies, choosing from active, inactive

Task: Check the results log: what was the call for "O=C(c1ccco1)c1c(C(F)(F)F)nc2ccc(Cl)cc2[n+]1[O-]" ?
Result: inactive

Task: Check the results log: what was the call for "CC(C)(/C=C(\C#N)C(=O)N1CCC[C@@H](n2nc(-c3ccc(Oc4ccccc4)cc3F)c3c(N)ncnc32)C1)N1CCN(C2COC2)CC1" ?
Result: inactive

Task: Check the results log: what was the call for "CN(C)C1CCN(C(=O)c2ccc(NC(=O)Nc3ccc(-c4nc(N5CCOCC5)c5cccn5n4)cc3)cc2)CC1" ?
Result: active

Task: Check the results log: what was the call for "C[n+]1c(/C=C/c2c(O)ccc3ccccc23)ccc2ccccc21" ?
Result: inactive

Task: Check the results log: what was the call for "COc1cc(C(=O)N2CCN(C(=O)c3cc(OC)c(OC)c(OC)c3)C2=S)cc(OC)c1OC" ?
Result: inactive

Task: Check the results log: what was the call for "COc1cc(N=Nc2ccc(O)c3ncccc23)c2ncccc2c1" ?
Result: inactive

Task: Check the results log: what was the call for "CC(=O)Nc1ccc(-c2csc(Nc3cccc(-c4csc(C)n4)c3)n2)cc1" ?
Result: inactive

Task: Check the results log: what was the call for "O=C(Nc1cccc(C(F)(F)F)c1)c1ccc(NC2=C(Cl)C(=O)N(Cc3ccc(Cl)cc3Cl)C2=O)cc1" ?
Result: inactive

Task: Check the results log: what was the call for "Cc1nc(Nc2cccnc2)sc1C(=O)/C=C/c1ccc(F)cc1" ?
Result: inactive
